From: PubChem BioAssay (NCI)

growth values for the compounds below.
- System: SF-295 CNS
- Assay Info: NCI-60 one-dose screen, 48 h (100 = growth as untreated, 0 = no growth, -100 = all killed)
- Condition Parameters: 10 µM unless noted
This is part of a sample that, as a whole, favours compounds with a hit. Of some 83,000 tested, about 20% had one in any assay.
Return type: number; implicit unit %.

- Compound: "CN1CCN(Cc2ccc(C(=O)Nc3cncc(C#Cc4cnc5cccnn45)c3)cc2C(F)(F)F)CC1"
  Unit: "%"
  Reported Measurement: 80.2
- Compound: "Nc1ccc(-c2nc3cc(Oc4ccc(Oc5ccc6[nH]c(-c7ccc(N)cc7)nc6c5)cc4)ccc3[nH]2)cc1"
  Unit: "%"
  Reported Measurement: 63.4
- Compound: "CC(=O)c1ccc(NC(=O)Nc2ccc(S(=O)(=O)Nc3ccc(Cl)nn3)cc2)cc1"
  Unit: "%"
  Reported Measurement: 103
- Compound: "COc1ccc(CCN2C(=O)/C(=C/c3ccc(C4Oc5ccccc5C5CC(c6cccc(OC)c6)=NN54)cc3)SC2=S)cc1 (stereo not given)"
  Unit: "%"
  Reported Measurement: 97.7
- Compound: "CC(C)CCNCC(O)Cn1c2ccccc2c2ccccc21 (stereo not given)"
  Unit: "%"
  Reported Measurement: -40

Give SF-295 CNS growth for `O=c1oc2ccc(I)cc2c(=O)n1-c1ccc(F)cc1F`
3.91

Query growth on SF-295 CNS for `Cc1cccc2c(=O)c3c(sc12)c(NCCCNCCO)nc1ccccc13`
74.7

Record lookup: for SF-295 CNS, what growth belongs to `COc1cc2nc(NC3CCC3)nc(NC3CCN(C(C)C)CC3)c2cc1OC` ?
96.6

Please provide the recorded growth for `O=c1oc2ccc(F)cc2c(=O)n1-c1ccc(Br)cc1F` , tested on SF-295 CNS.
-50.6

Form field - read-out: growth; system: SF-295 CNS; submitted item: `COc1ccc(C2=Nn3c(NN)nnc3SC2)cc1`
106

Param readout = growth; param system = SF-295 CNS; param query = `COc1ccc(Cn2c(Br)c3c(c2Br)-c2nc(NC(=O)c4ccc(OC)cc4)sc2CC3)cc1` ; response: value
57.7

Provide value of growth for this record tested with SF-295 CNS: O=C(NN1C(=O)CSC1c1ccc(Cl)cc1)c1[nH]c2ccc(F)cc2c1-c1ccccc1 (stereo not given)
8.34

====

Form field: growth (one value per entry).
- Tested on: SK-MEL-28 melanoma
- Assay Info: NCI-60 one-dose screen, 48 h (100 = growth as untreated, 0 = no growth, -100 = all killed)
- Condition Parameters: 10 µM
The panel holds about 83,000 compounds, 20% with a hit somewhere; the sample as a whole holds those more often.
Write the number in % without appending the unit.

- Compound: "CC(=O)c1ccc2oc(=O)n(Cc3ccc(C#N)cc3)c(=O)c2c1"
  Test Target: "SK-MEL-28 melanoma"
  growth [%]: 104
- Compound: "O=C(Nc1ccc(Cl)cc1F)c1cc(Br)ccc1O"
  Test Target: "SK-MEL-28 melanoma"
  growth [%]: 13.2
- Compound: "C[C@@H](C(=O)NCCCC#Cc1cnc(Nc2ccc(C#N)cc2)nc1NC1CC1)N(C)C(=O)/C=C/CN(C)C"
  Test Target: "SK-MEL-28 melanoma"
  growth [%]: 52.1
- Compound: "COc1cc(-c2c3c(cn2S(=O)(=O)c2ccccc2)-c2nc(N)sc2CC3)cc(OC)c1OC"
  Test Target: "SK-MEL-28 melanoma"
  growth [%]: 68.6

Form field - read-out: growth; system: SK-MEL-28 melanoma; submitted item: `Oc1[nH]c2ccccc2c1N=Nc1nnc2n1N=C(c1ccccc1)CS2`
97

====

- Tested on: UACC-62 melanoma
- Assay Info: NCI-60 one-dose screen, 48 h
- Condition Parameters: 10 µM unless noted
This is part of a sample that, as a whole, favours compounds with a hit. Of some 83,000 tested, about 20% had one in any assay. Activity calls are given as the source filed them. How the source made its calls: active means growth percent below 10; inactive means the rest.
Can you answer with just one of these options? active, inactive

These recorded examples may help you get a feel for the data.
- Compound: "COc1cc(C(C)n2cc(-c3ccccc3)nn2)ccc1OC1CCCC1 (configuration not stated)"
  Group: "inactive"
- Compound: "O=C(c1ccccc1)N(C(=S)NCCc1ccc(Cl)cc1)c1ccc(Cl)cc1"
  Group: "inactive"
- Compound: "CN1C(=O)N(C)C2(c3ccccc3)n3c(s/c(=C\\c4ccccc4)c3=O)=NNC12c1ccccc1 (configuration not stated)"
  Group: "inactive"
- Compound: "Cc1cccc2c(=O)c3c(sc12)c(NCCCNCCO)nc1ccccc13"
  Group: "inactive"

Moving on to another compound below.
# fetch the recorded call for `Cc1ccc2cccc(Oc3ccc(Nc4ncnc5onc(-c6ccccc6)c45)cc3)c2n1` here
inactive

====

Recorded measurements of growth, one per entry
- Tested on: OVCAR-4 ovarian
- Assay Info: NCI-60 one-dose screen, 48 h (100 = growth as untreated, 0 = no growth, -100 = all killed)
- Condition Parameters: 10 µM unless noted
- Protocol: Growth inhibition of the OVCAR-4 human tumor cell line is measured as a screen for anti-cancer activity. Cells are grown in 96 well plates and exposed to the test compound for 48 hours. Compounds are tested at a single concentration, which is 10^-5 M for most compounds. The reported endpoint is percent growth (GI% or GIPRCNT), where numbers from 0 - 100% represent growth inhibition, and numbers from -100% - 0 represent cell death. For example, a value of 40 represents 60% growth inhibition. […]
This is part of a sample that, as a whole, favours compounds with a hit. Of some 83,000 tested, about 20% had one in any assay. Active and inactive are the calls of the source. Rule for the calls: active = growth percent below 10; inactive = the rest.

The examples below pair each entry with its known result.
- Molecule: "COC(=O)/C(=C\\c1c(C)[nH]c2ccccc12)S(=O)(=O)c1ccccc1"
  Reported Measurement: "53% (inactive)"
- Molecule: "CC(C)c1ccc(S(=O)(=O)NC(=O)NC2CCCC2)cc1"
  Reported Measurement: "97.2% (inactive)"
- Molecule: "O=C(NCc1ccccc1)C1CN(c2ccc(Cl)cc2)N(c2ccc(Cl)cc2)C1=O (stereo unspecified)"
  Reported Measurement: "88.3% (inactive)"
- Molecule: "O=c1cc(NC2CCN(CCCc3ccccc3)CC2)c2cc(Cl)ccc2o1"
  Reported Measurement: "12.7% (inactive)"
- Molecule: "CCOC(=O)C1(Cc2ccccc2)CCN(Cc2cccc(OC)c2O)CC1"
  Reported Measurement: "17.2% (inactive)"
- Molecule: "Cc1sc2ncn(CC(=O)Nc3ccc(S(N)(=O)=O)cc3)c(=O)c2c1C"
  Reported Measurement: "108% (inactive)"
- Molecule: "O=C(Nc1ccc(N2CCNCC2)cc1)c1[nH]ncc1Nc1cc(Oc2ccccc2)ncn1"
  Reported Measurement: "43.3% (inactive)"
- Molecule: "O=c1nc2sc3nc4ccccc4cc3cc-2s1"
  Reported Measurement: "115% (inactive)"

What measured growth goes with `Nc1ccccc1-c1ccc(-c2ccc(Cl)cc2)c2c1[nH]c1ccccc12` ?
92.5% (inactive)

May I ask what growth has been recorded for `CCOC(=O)c1cnc2c(C)cccc2c1Nc1ccc(C(C)=O)cc1` ?
16.2% (inactive)

Param item = `Cc1c(-c2noc(-c3ccc([N+](=O)[O-])cc3)n2)no[n+]1[O-]` ; retrieve measured growth.
102% (inactive)

Given the entry `COc1ccc2oc(=O)cc(Cn3cc(Cn4cnc5c4c(=O)n(C)c(=O)n5C)nn3)c2c1` , report its measured growth.
103% (inactive)

growth for `O=c1oc2ccc(Br)cc2c(=O)n1-c1ccc(I)cc1F` ?
15.2% (inactive)

Quick check: growth of `O=c1oc2ccc(Br)cc2c(=O)n1-c1ccc(F)cc1F` ?
15% (inactive)

Could you tell me which growth is on file for O=S1(=O)N(Cc2ccccc2)[C@@H](Cc2ccccc2)C2O[C@H]2[C@H](Cc2ccccc2)N1Cc1ccccc1 (stereo partly specified) ?
6.6% (active)

Recorded growth for `O=c1oc2ccc(Br)cc2c(=O)n1-c1ccc(Cl)cc1F` , please?
15.1% (inactive)

====

- Tested on: SK-MEL-2 melanoma
- Assay Info: NCI-60 one-dose screen, 48 h (100 = growth as untreated, 0 = no growth, -100 = all killed)
- Condition Parameters: 10 µM unless noted
Compounds without any hit were thinned out: in the full panel of roughly 83,000, 20% have a hit.
Output Satisfied for growth not less than 90%; output Not satisfied otherwise.

Answered examples (3):
- Compound: "COc1cc2nc(-c3cccc4cccnc34)nc(NC3CCN(Cc4ccccc4)CC3)c2cc1OC"
  Group: "Not satisfied"
- Compound: "Cc1cccc2c(=O)c3c(sc12)c(N1CCNCC1)nc1ccccc13"
  Group: "Satisfied"
- Compound: "CC(=O)n1cc(-c2c[nH]c3ccccc23)c(-c2ccc(Cl)cc2)n1"
  Group: "Satisfied"

Given the entry `Cc1cc(OC(=O)c2ccc([N+](=O)[O-])cc2)nc2[nH]c(=O)sc12` , answer whether its growth meets or surpasses 90%.
Satisfied

API: above_or_equal(metric=growth, cutoff=90%) for item `O=Cc1cc2ccccc2nc1Nc1nccs1`
Satisfied
